The measured values listed here are drawn from a collection of fitness landscapes (doi:10.1126/science.1257360).

B1: PhoQ; a variant is named by its letters at X, in order, P23837 (parent)
chain: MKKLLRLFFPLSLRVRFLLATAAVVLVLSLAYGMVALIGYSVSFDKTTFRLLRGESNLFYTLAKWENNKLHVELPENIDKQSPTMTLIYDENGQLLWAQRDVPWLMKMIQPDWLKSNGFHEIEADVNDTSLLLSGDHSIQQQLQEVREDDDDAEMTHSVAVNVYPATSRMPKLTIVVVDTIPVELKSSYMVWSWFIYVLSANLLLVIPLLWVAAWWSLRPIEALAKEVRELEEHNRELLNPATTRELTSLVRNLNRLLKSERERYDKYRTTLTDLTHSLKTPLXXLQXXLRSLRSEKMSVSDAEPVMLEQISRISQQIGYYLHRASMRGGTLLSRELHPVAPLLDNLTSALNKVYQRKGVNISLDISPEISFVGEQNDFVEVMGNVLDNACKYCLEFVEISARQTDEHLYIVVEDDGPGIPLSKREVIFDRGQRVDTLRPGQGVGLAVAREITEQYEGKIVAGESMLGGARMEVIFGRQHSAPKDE

Variants of: B1
Assay: enrichment ratio after two sorts for PhoP signalling (ratio (wild type AVST 3.29)); higher = more functional
Details: with PhoP (E. coli)
The full ranking holds about 140,000 sequences; the median of “enrichment ratio after two sorts for PhoP signalling” is about 0, and the highest 2% start at about 11. Many of the other results were omitted from the sample, so the highest values are more common in it than they were.
measured-attribute: enrichment ratio
Kindly provide the number alone.

TETV : 17.9
GTCM : 5.28
GNCM : 11.7
GECM : 15.3
SQMD : 17.4

I am curious: what enrichment ratio value has been reported for VCIS ?
0.315

I am curious: what enrichment ratio value has been reported for TEYS ?
11.9

I am curious: what enrichment ratio value has been reported for SITV ?
11.8

I am curious: what enrichment ratio value has been reported for TELF ?
12.2

I am curious: what enrichment ratio value has been reported for SGSG ?
8.15

I am curious: what enrichment ratio value has been reported for MELF ?
0.528

I am curious: what enrichment ratio value has been reported for MIGL ?
1.45

I am curious: what enrichment ratio value has been reported for NETV ?
8.86

I am curious: what enrichment ratio value has been reported for GICM ?
38.3

I am curious: what enrichment ratio value has been reported for MELL ?
3.52

I am curious: what enrichment ratio value has been reported for TELL ?
16.9

I am curious: what enrichment ratio value has been reported for STMD ?
9.32
